Would you kindly list logP for each of these molecules?

[Q] I'd like to know its logP. The molecule in question is `CCn1cc(C(=O)O)c(=O)c2ccc(C)nc21`
[A] 1.59

[Q] I'd like to know its logP. The molecule in question is `O=[N+]([O-])/C=C/c1ccoc1`
[A] 1.41

[Q] I'd like to know its logP. The molecule in question is `Cc1cccc2c1c([N+](=O)[O-])cc[n+]2[O-]`
[A] 1.36

[Q] I'd like to know its logP. The molecule in question is `Clc1cccc(Cl)c1`
[A] 3.53

[Q] I'd like to know its logP. The molecule in question is `O=C(O)COc1ccccc1F`
[A] 1.39

[Q] I'd like to know its logP. The molecule in question is `N#Cc1ccc(NC=O)cc1`
[A] 1.08

[Q] I'd like to know its logP. The molecule in question is `C[C@]12C[C@H](O)[C@H]3[C@@H](CCC4=CC(=O)CC[C@@]43C)[C@@H]1CC[C@@H]2C(=O)CO`
[A] 1.94
